Exercise: for every item that follows, state its recorded pIC50.
# SYSTEM_UNDER_TEST: CDK9/CycT1 (Homo sapiens, UniProt P50750)
# Sequence (P50750 whole entry): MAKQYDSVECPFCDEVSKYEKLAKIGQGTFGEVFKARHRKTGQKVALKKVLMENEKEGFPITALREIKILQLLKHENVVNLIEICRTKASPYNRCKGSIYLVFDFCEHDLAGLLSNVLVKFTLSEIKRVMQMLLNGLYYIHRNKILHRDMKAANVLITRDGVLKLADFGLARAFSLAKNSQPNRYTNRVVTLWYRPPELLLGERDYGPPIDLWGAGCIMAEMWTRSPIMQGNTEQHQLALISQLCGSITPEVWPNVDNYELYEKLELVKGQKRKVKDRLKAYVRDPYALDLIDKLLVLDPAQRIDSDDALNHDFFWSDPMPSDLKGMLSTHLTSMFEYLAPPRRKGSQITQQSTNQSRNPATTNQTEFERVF
# Sequence (O60563 whole entry partner): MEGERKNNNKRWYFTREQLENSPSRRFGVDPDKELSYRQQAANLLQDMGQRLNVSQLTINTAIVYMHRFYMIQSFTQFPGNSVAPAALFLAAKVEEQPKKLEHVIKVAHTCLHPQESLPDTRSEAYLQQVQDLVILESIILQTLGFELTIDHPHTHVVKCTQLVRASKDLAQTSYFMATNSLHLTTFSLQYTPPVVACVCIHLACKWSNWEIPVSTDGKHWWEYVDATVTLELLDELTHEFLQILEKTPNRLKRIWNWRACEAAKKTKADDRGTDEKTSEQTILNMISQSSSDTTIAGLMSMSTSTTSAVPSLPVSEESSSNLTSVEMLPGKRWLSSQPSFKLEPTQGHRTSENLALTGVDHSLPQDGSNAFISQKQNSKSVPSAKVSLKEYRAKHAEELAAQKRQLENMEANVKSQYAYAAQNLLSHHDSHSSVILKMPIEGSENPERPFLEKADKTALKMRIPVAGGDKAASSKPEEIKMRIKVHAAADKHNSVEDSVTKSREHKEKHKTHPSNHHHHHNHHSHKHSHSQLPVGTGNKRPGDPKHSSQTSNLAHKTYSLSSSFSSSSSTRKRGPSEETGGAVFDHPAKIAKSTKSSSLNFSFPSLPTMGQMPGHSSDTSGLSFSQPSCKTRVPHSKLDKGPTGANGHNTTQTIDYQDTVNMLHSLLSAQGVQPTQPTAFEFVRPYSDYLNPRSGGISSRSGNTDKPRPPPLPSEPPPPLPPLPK
# RUN_DESCRIPTION: CDK9 inhibitory activity, Off-chip Mobility Shift Assay (MSA)
# CONDITIONS: room temperature, one hour, read-out: IC50 value with respect to CDK9/CycT1
# Description: [Assay of CDK9 Inhibitory Activity] The tests for confirming CDK9 inhibitory activity were carried out by the following procedure according to Off-chip Mobility Shift Assay (MSA). A substrate/ATP/metal solution (4×) was prepared with use of a kit buffer (20 mM HEPES, 0.01% Triton X-100, 5 mM DTT, pH7.5). […] 4) Substrate peptides and phosphorylated peptides in the reaction solutions were separated and quantified in LabChip™ System (PerkinElmer Co., Ltd.). […]
The quantity pIC50 is defined as the negative base-10 logarithm of the molar concentration.

Checklist item: pIC50 tested on CDK9/CycT1 (Homo sapiens, UniProt P50750), entry Fc1ccc(N2CCCCCC2)c(NC(=S)c2ccncc2)c1 , value?
4.88

Checklist item: pIC50 tested on CDK9/CycT1 (Homo sapiens, UniProt P50750), entry O=C(Nc1cc(F)ccc1N1CCCCCC1)c1ccncc1 , value?
4.86

Checklist item: pIC50 tested on CDK9/CycT1 (Homo sapiens, UniProt P50750), entry O=C(Nc1cc(F)ccc1N1CCCCC1)c1ccncc1 , value?
4.88

Checklist item: pIC50 tested on CDK9/CycT1 (Homo sapiens, UniProt P50750), entry Fc1ccc(N2CCCCC2)c(NC(=S)c2ccncc2)c1 , value?
5.24
